tested on: SCLC strain SHP-77; test: Colorimetric tetrazolium (MTT) assay for cell survival, SCLC strain SHP-77; assay type: cell-based, human; details: Table 1; SHP-77, MTT, 4 days
For each entry below, report its MTT: ED50 for killing of SCLC strain SHP-77 in vitro value.
Numbers only, in µM.

[
  {
    "substance": "DTP-(DArg-Arg-Eac-Ser-DF5F-Nc7G-Arg)2 [M1026]",
    "unit-abbrev": "µM",
    "result-value": 70
  },
  {
    "substance": "Moti-DArg-Arg-Pro-Hyp-Gly-Igl-Ser-DIgl-Oic-Arg [B10100-1]",
    "unit-abbrev": "µM",
    "result-value": 4
  },
  {
    "substance": "DDD-(DArg-Arg-Aud-Ser-DIgl-Oic-Arg)2 [M858]",
    "unit-abbrev": "µM",
    "result-value": 4
  },
  {
    "substance": "Aca-DArg-Arg-Aud-Ser-D5F5-Oic-Arg [M960]",
    "unit-abbrev": "µM",
    "result-value": 21
  },
  {
    "substance": "SBEC-(DArg-Arg-Eac-Ser-DF5F-Nc7G-Arg)2 [M1028]",
    "unit-abbrev": "µM",
    "result-value": 28
  },
  {
    "substance": "DDD-(DArg-Arg-Eac-Ser-DIgl-Oic-Arg)2 [M854]",
    "unit-abbrev": "µM",
    "result-value": 7.3
  },
  {
    "substance": "DDD-(DArg-Arg-Aud-DF5F-Oic-Arg)2 [M846]",
    "unit-abbrev": "µM",
    "result-value": 2
  },
  {
    "substance": "DDD-( DArg-Arg-Add-Ser-DIgl-Oic-Arg)2 [M862]",
    "unit-abbrev": "µM",
    "result-value": 1.3
  }
]

Turning now to a further substance:
Query: Notebook: pull reported MTT: ED50 for killing of SCLC strain SHP-77 in vitro for SCLC strain SHP-77, entry DDD-(Eac-Eac-Arg-DIgl-Oic-Arg)2 [B10200]
Result: 16
